experiment: Selectivity ratio of EC50 for human MOLT4 cells to EC50 for bloodstream form of Trypanosoma brucei rhodesiense YTat1.1; type: ADME, cell-based, MOLT-4; details: read-out: Ratio EC50
Decide using selectivity ratio alone. Strictly below 2: Met. Equal to or above 2: Not met.

Prompt: Consider the compound CN1CCN(c2ccc(C(=O)Nc3n[nH]c4c3CN(C(=O)Cc3cccc5ccccc35)C4)cc2)CC1 . Is its selectivity ratio strictly less than 2?
Response: Not met

Prompt: Dear reviewer, please state whether Cc1[nH]c2ccccc2c1CC(=O)N1Cc2[nH]nc(NC(=O)c3ccc(N4CCN(C)CC4)cc3)c2C1 has selectivity ratio strictly beneath 2.
Response: Met

Prompt: Strictly below 2 in selectivity ratio? CN1CCN(c2ccc(C(=O)Nc3n[nH]c4c3CN(C(=O)Cc3cccc(Cl)c3)C4)cc2)CC1
Response: Not met

Prompt: Lab log: compare recorded selectivity ratio with 2; is it strictly lower for Cc1ccc(C(C)C(=O)N2Cc3[nH]nc(NC(=O)c4ccc(N5CCN(C)CC5)cc4)c3C2)cc1 (racemic) ?
Response: Not met

Prompt: In the record for CO[C@@H](C(=O)N1Cc2n[nH]c(NC(=O)c3ccc(N4CCN(C)CC4)cc3)c2C1)c1ccccc1 , is selectivity ratio less than 2?
Response: Met

Prompt: Is it true that selectivity ratio reported for Cc1ccc(C)c(CC(=O)N2Cc3[nH]nc(NC(=O)c4ccc(N5CCN(C)CC5)cc4)c3C2)c1 is less than 2?
Response: Not met

Prompt: Input CN1CCN(c2ccc(C(=O)Nc3n[nH]c4c3CN(C(=O)Cc3cc(F)cc(F)c3)C4)cc2)CC1 ; condition: selectivity ratio strictly below 2. Does it hold?
Response: Met

Prompt: Lab note: confirm whether the reported selectivity ratio for this compound is below 2, equality not counting. compound: COC(C(=O)N1Cc2[nH]nc(NC(=O)c3ccc(N4CCN(C)CC4)cc3)c2C1)c1ccccc1 (racemic)
Response: Not met

###

system: MOLT-4; test: Cytotoxicity against human MOLT4 cells assessed as inhibition of cell growth after 4 days by Cell Titer Blue end-point assay; format: cell-based; conditions: MOLT-4, 96 h
Measured metric: pEC50
# pEC50 = -log10(concentration in molar units)

Prompt: Given the compound CN1CCN(c2ccc(C(=O)Nc3n[nH]c4c3CN(C(=O)Cc3cccc(Cl)c3)C4)cc2)CC1 , what is its reported pEC50?
Response: 5.40

Prompt: // returns reported pEC50 for input COC(C(=O)N1Cc2[nH]nc(NC(=O)c3ccc(N4CCN(C)CC4)cc3)c2C1)c1ccccc1 (racemic)
Response: 5.38

Prompt: // pEC50 lookup, key: CN1CCN(c2ccc(C(=O)Nc3n[nH]c4c3CN(C(=O)Nc3ccccc3)C4)cc2)CC1
Response: 5.45

Prompt: For the compound shown here, CCc1cccc(CC)c1NC(=O)N1Cc2[nH]nc(NC(=O)c3ccc(N4CCN(C)CC4)cc3)c2C1 , give the reported pEC50.
Response: 6.66

Prompt: Need pEC50, item CN1CCN(c2ccc(C(=O)Nc3n[nH]c4c3CN(C(=O)Cc3cccc5ccccc35)C4)cc2)CC1
Response: 4.85

Prompt: What does the data say about its pEC50? Entry: CN1CCN(c2ccc(C(=O)Nc3n[nH]c4c3CN(C(=O)Cc3c(F)ccc(F)c3F)C4)cc2)CC1
Response: 5.65

Prompt: // pEC50 lookup, key: Cc1cc(C)cc(CC(=O)N2Cc3[nH]nc(NC(=O)c4ccc(N5CCN(C)CC5)cc4)c3C2)c1
Response: 5.35

Prompt: Reported pEC50, compound Cc1ccc(C(C)C(=O)N2Cc3[nH]nc(NC(=O)c4ccc(N5CCN(C)CC5)cc4)c3C2)cc1 (racemic) : ____
Response: 5.26

Prompt: Name the reported pEC50 value associated with the compound CN1CCN(c2ccc(C(=O)Nc3n[nH]c4c3CN(C(=O)Cc3cc(F)cc(F)c3F)C4)cc2)CC1
Response: 5.64

Prompt: Dear colleague, I am looking for the recorded pEC50 of the following compound: CN1CCN(c2ccc(C(=O)Nc3n[nH]c4c3CN(C(=O)c3ccccc3)C4)cc2)CC1
Response: 6.27

Prompt: Would you kindly share the measured pEC50 for CN1CCN(c2ccc(C(=O)Nc3n[nH]c4c3CN(C(=O)Cc3cc(F)cc(F)c3)C4)cc2)CC1 ?
Response: 6.20

Prompt: Look up pEC50 for this compound: Cc1ccc(S(=O)(=O)N2Cc3[nH]nc(NC(=O)c4ccc(N5CCN(C)CC5)cc4)c3C2)cc1
Response: 6.03

Prompt: Quick one: pEC50 for Cc1ccc(C)c(CC(=O)N2Cc3[nH]nc(NC(=O)c4ccc(N5CCN(C)CC5)cc4)c3C2)c1 ?
Response: 5.58
